Test system: SF-268 CNS
Assay: NCI-60 one-dose screen, 48 h (100 = growth as untreated, 0 = no growth, -100 = all killed)
Details: 10 µM unless noted
This is part of a sample that, as a whole, favours compounds with a hit. Of some 83,000 tested, about 20% had one in any assay.
Consider the cut-off 90%. If the recorded growth is strictly smaller, the label is true (1); if not, the label is false (0).

compound	assigned-category
c1ccc(-c2cn3nc(-c4c[nH]c5ccccc45)sc3n2)cc1	false (0)
COc1cccc2cc(N(C)c3ncnc4ccccc34)ccc12	true (1)
O=C(/C=C/c1ccco1)Nc1ncc(Cc2ccc(F)cc2)s1	true (1)
COc1ccc(CNc2c3ccccc3nc3ccccc23)cc1OC	true (1)
Cn1cc(-c2ccc3c(Nc4cccc(NC(=O)Nc5cccc(F)c5)c4)ncnc3c2)cn1	true (1)
O=C1CCc2c(sc3[nH]c(=S)n(-c4cc(C(F)(F)F)cc(C(F)(F)F)c4)c(=O)c23)C1	true (1)
COC(=O)c1nc(-c2ccccc2)oc1S(=O)(=O)NCC(c1ccc(Cl)cc1)N1CCCCC1 (centres undefined)	true (1)
O=C(OCC(O)(CO)C(=O)NC12CC3CC(CC(C3)C1)C2)c1ccc(Cl)cc1 (centres undefined)	false (0)
COc1cccc(/C=C/C(=O)/C=C(/C=C/c2cccc(OC)c2OC)OB(F)F)c1OC	false (0)
COc1cccc(CNc2nnc(C)c(C)n2)c1O	false (0)
COc1cccc2cc(N(C)c3nc(C)nc4c3CCC4)ccc12	true (1)
N#C/C(=C\c1cccc2cnccc12)N1N=NC2C=CC=CC21 (centres undefined)	true (1)
CCOC(=O)c1cc(C(=O)c2cc(OC)cc(OC)c2)n2ncccc12	true (1)
O=C(/C=C/C12c3ccccc3C(c3ccccc31)C1C(=O)NC(=O)C12)c1cccs1 (centres undefined)	true (1)
Cc1ccc(OCCOCCOCCOCCOc2ccc(C)n(O)c2=S)c(=S)n1O	true (1)
NCCNc1ccc([N+](=O)[O-])cc1	false (0)
COc1ccc(-c2ccc(-c3ccc(C(=N)N)o3)o2)cc1	true (1)
COC(=O)c1cc(-c2cc(OC)c(OC)c(OC)c2)[nH]c1N/N=C/c1c(Cl)cccc1Cl	true (1)
O=c1oc2ccccc2cc1-c1nn(-c2ccccc2)cc1/C=N/Nc1nc(-c2ccccc2)c(N=Nc2ccccc2)s1	true (1)
O=C(Nc1ncc(Cc2ccccc2)s1)c1cc(-c2ccccc2)nc2ccccc12	false (0)
CC1(C)CC(=O)C2=C(C1)OC(C(=O)c1ccccc1)C2c1cccc(Oc2ccccc2)c1 (centres undefined)	true (1)
O=c1c2cccc3c(N4CCOCC4)ccc(c32)c2nc3ccccc3n12	false (0)
CC(C)(C)[C@H](OCc1cn([C@H]2C[C@@H](O)[C@@H](CO)O2)c(=O)[nH]c1=O)c1ccc(C#Cc2ccccc2)cc1[N+](=O)[O-]	true (1)
C/C=C(/C)C(=O)O[C@@H]1CC(C)(C)CC2C34OC(=O)[C@@]21CC[C@@]3(C)[C@]1(C)CCC2C(C)(C)C(=O)CC[C@]2(C)C1C[C@@H]4O (some centres undefined)	true (1)
CC(=O)c1c(/C=C/c2ccc(C)cc2)c2ccccc2[nH]c1=O	true (1)
C#CCOc1ccc(C2=NN(C)C3N=C(Cl)c4ncn(C)c4N23)cc1OCC#C (centres undefined)	false (0)
CN(Cc1ccccc1)c1nc(Cl)c(C2CC(c3ccc(Cl)cc3)=NN2c2cc(Cl)cc(Cl)c2)s1 (centres undefined)	false (0)
Cc1c(C)c2c(c(C)c1OC(=O)CCC(=O)[O-])CCC(C)(CCCCCCCCCCC[P+](c1ccccc1)(c1ccccc1)c1ccccc1)O2 (centres undefined)	true (1)
CSc1nc(N)c2c(n1)NC(c1ccccc1)C1CCc3ccccc3C1=N2 (centres undefined)	true (1)
CCCCC#Cc1c(I)n(C2OC(CO[Si](C)(C)C(C)(C)C)C3OC(C)(C)OC32)c(=O)[nH]c1=O (centres undefined)	false (0)
C=CCn1c(SCC(=O)Nc2ccc(C(=O)/C=C/c3cc(OC)c(OC)c(OC)c3)cc2)nnc1-c1cc(-c2ccc(S(N)(=O)=O)cc2)nc2ccccc12	false (0)
Brc1ccc(-c2nn(-c3ccccc3)cc2-c2nn[nH]n2)s1	false (0)
C#CCOc1cc(/C=N/Nc2nc(-c3ccc(OC)cc3)cs2)ccc1O	false (0)

Entry source: PubChem BioAssay (NCI)
